Listed here are binders together with their documented Kd.
# Target: IgG
# Test: SPR, IgG immobilised on CM5 chip, compound as analyte; value from the legend of the grade (**** = Kd <100 nM)
Bridges are numbered along the chain shown (N, C = ends). [ ]: non-standard residue; d: D form. Pro(4S-NH2) = N[C@@H]1CN[C@H](C(=O)O)C1

Query :: # Kd lookup, item cyclo(PDCAWHLGELVWCT[dP]) (disulfide 3-13; not fully specified (residue 1); also: conjugate from acid A32) [Compound 62]
Result :: < 100 nM

Query :: Please answer likewise for cyclo([Pro(4S-NH2)]DCAWHLGQLVWCT[dP]) (disulfide 3-13; SMILES CC(C)C[C@@H]1NC(=O)[C@H](Cc2c[nH]cn2)NC(=O)[C@H](Cc2c[nH]c3ccccc23)NC(=O)[C@H](C)NC(=O)[C@@H]2CSSC[C@H](NC(=O)[C@H](Cc3c[nH]c4ccccc34)NC(=O)[C@H](C(C)C)NC(=O)[C@H](CC(C)C)NC(=O)[C@H](CCC(N)=O)NC(=O)CNC1=O)C(=O)N[C@@H]([C@@H](C)O)C(=O)N1CCC[C@@H]1C(=O)N1C[C@@H](N)C[C@H]1C(=O)N[C@@H](CC(=O)O)C(=O)N2) [Intermediate 18]
Result :: < 100 nM

Query :: Input PDCAWHLGELVWCTP (residue 1 = (2S,4S)-4-aminoproline; residue 15 = D-Pro; backbone cyclised head to tail; disulfide Cys3-Cys13; 4-amino group of residue 1 acylated with the linker to the sugar ligands) [Compound 86]
Result :: < 100 nM

Numbers sourced from patent US20250223280A1.
